molecular target: telomerase (Homo sapiens, UniProt O14746); test: Direct telomerase repeat addition assay with radiolabeled dNTPs: dNTP titration, repeat processivity R1/2; format: biochemical; parameters: made in house; anti-FLAG immunopurification, eluted with 3xFLAG peptide; settings: (TTAGGG)3 primer; indicated dNTP at 24 μM, remaining three natural dNTPs at cellular concentration; Mean
Sequence (O14746 whole entry): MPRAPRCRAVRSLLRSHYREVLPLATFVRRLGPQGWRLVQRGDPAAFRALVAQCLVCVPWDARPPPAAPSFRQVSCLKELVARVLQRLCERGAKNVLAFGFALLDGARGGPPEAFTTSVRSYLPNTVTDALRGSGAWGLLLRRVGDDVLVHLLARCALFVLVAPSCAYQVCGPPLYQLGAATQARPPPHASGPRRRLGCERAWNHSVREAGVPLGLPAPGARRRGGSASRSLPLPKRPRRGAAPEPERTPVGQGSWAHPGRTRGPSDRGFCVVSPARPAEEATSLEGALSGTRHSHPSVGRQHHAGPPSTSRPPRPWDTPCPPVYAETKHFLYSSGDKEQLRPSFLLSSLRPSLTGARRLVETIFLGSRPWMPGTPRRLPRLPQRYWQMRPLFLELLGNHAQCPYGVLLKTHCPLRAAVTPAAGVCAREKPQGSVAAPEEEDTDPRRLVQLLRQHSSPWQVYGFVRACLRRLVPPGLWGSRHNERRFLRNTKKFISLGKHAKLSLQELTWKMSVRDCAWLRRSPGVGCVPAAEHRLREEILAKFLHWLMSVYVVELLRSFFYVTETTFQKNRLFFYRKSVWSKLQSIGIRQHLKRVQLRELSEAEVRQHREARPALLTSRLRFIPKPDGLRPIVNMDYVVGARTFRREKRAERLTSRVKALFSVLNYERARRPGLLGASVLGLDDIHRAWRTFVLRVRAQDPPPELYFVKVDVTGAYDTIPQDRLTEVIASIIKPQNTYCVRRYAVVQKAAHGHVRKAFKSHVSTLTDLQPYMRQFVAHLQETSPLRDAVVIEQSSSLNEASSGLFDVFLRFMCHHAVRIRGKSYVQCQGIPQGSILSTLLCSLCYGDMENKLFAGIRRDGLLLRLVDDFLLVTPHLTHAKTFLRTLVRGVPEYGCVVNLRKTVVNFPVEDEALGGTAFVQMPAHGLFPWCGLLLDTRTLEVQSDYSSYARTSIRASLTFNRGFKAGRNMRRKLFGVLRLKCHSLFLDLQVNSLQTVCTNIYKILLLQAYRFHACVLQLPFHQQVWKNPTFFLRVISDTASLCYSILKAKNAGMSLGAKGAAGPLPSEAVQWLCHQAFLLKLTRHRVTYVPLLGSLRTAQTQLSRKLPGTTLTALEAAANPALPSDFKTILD
Observed Property: Processivity R 1/2
API doc: respond with a numeric literal and nothing else, no unit.

Examples with their reported Processivity R 1/2 follow.
>>> assay_result("Nc1ncnc2c1[nH]c(=O)n2C1CC(O)C(COP(=O)(O)OP(=O)(O)OP(=O)(O)O)O1 (stereo not drawn) [8-oxo-dATP]")
0
>>> assay_result("Nc1ncnc2c1ncn2C1CC(O)C(COP(=O)(O)OP(=O)(O)OP(=O)(O)O)O1 (stereo not drawn) [dATP]")
2.21
>>> assay_result("Nc1nc2c([nH]c(=O)n2C2CC(O)C(COP(=O)(O)OP(=O)(O)OP(=O)(O)O)O2)c(=O)[nH]1 (stereo not drawn) [8-oxo-dGTP]")
0

Prompt: For the compound Cc1cn([C@H]2C[C@H](N=[N+]=[N-])[C@@H](CO[P@](=O)(O)O[P@](=O)(O)OP(=O)(O)O)O2)c(=O)[nH]c1=O [AZT-TP] , what Processivity R 1/2 is on record?
Completion: 0

Prompt: Look at this compound and give its reported Processivity R 1/2. Nc1nc(O)nc2c1ncn2C1CC(O)C(COP(=O)(O)OP(=O)(O)OP(=O)(O)O)O1 (stereo not drawn) [2-OH-dATP]
Completion: 0.66

Prompt: Query (compound): Cc1cn(C2CC(O)C(COP(=O)(O)OP(=O)(O)OP(=O)(O)O)O2)c(=O)[nH]c1=O (stereo not drawn) [dTTP] ; field requested: Processivity R 1/2
Completion: 1.95

Prompt: What does the record list as Processivity R 1/2 for Nc1nc2c(ncn2C2CC(O)C(COP(=O)(O)OP(=O)(O)OP(=O)(O)O)O2)c(=O)[nH]1 (stereo not drawn) [dGTP] ?
Completion: 5.11

Prompt: Find the recorded Processivity R 1/2 belonging to Nc1nc2c(ncn2C2CC(O)C(COP(=O)(O)OP(=O)(O)OP(=O)(O)O)O2)c(=S)[nH]1 (stereo not drawn) [6-thio-dGTP] and report it.
Completion: 0

Prompt: Form field: reported Processivity R 1/2 of O=c1[nH]cnc2c1ncn2C1CCC(COP(=O)(O)OP(=O)(O)OP(=O)(O)O)O1 (stereo not drawn) [ddITP]
Completion: 0
